Just for reference, ChEMBL document CHEMBL4002599 is where these values come from.

# TARGET: Phosphatidylinositol 4,5-bisphosphate 3-kinase catalytic subunit alpha isoform (Homo sapiens, UniProt P42336)
# Sequence (P42336 whole entry, canonical isoform): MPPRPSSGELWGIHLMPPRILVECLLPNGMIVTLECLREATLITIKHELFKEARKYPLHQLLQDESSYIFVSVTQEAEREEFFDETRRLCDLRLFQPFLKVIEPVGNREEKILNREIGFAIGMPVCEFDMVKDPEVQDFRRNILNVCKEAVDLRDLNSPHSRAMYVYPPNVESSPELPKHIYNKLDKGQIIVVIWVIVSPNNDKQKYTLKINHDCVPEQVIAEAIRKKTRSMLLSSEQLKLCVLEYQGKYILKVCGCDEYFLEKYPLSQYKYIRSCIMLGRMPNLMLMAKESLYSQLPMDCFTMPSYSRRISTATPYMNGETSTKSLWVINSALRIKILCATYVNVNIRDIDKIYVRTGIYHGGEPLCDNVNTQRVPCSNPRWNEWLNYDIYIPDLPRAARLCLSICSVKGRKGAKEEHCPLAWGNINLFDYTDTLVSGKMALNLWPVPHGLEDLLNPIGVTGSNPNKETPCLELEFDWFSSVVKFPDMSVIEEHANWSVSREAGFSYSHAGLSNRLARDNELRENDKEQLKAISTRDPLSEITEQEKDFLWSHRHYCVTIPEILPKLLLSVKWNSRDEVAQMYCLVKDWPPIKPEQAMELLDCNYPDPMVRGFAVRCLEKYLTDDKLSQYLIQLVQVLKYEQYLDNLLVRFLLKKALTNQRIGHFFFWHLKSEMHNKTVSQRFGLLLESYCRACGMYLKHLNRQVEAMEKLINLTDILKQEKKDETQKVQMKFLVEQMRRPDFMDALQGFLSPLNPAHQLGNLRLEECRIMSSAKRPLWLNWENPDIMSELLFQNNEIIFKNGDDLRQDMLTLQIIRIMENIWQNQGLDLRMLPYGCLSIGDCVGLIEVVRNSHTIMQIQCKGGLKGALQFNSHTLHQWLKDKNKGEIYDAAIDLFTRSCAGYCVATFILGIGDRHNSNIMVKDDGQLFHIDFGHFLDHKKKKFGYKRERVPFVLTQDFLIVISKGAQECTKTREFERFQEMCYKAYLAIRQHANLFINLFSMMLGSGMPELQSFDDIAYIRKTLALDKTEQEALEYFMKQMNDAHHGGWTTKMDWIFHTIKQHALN
# ASSAY_PROCEDURE: Inhibition of PI3Kalpha (unknown origin)
MEASUREMENT_KIND: IC50 (µM)
Numbers only; they are read as µM.

If you can, please state the reported IC50 value of CN(C)CCn1cc(-c2ccn3c(-c4ccc(C(N)=O)c(OCc5cccc(F)c5)c4)cnc3c2)cn1 .
6.23

====

# ASSAY_PROCEDURE: Clearance in Sprague-Dawley rat at 1 mg/kg, iv administered as bolus dose by LC-MS/MS method
# Format: ADME, organism-based
# CONDITION: in vivo
MEASUREMENT_KIND: clearance (mL/min/kg)
Kindly provide the numeric value in mL/min/kg only, without the unit symbol.

Quick one: clearance of CN(C)CCn1cc(-c2ccn3c(-c4ccc(C(N)=O)c(OCc5ccccc5)c4)cnc3c2)cn1 ?
42.4

Also CN(C)CCn1cc(-c2ccn3c(-c4ccc(C(N)=O)c(OCc5cccc(C(F)(F)F)c5)c4)cnc3c2)cn1 , if possible.
62.8

Again, but for CN(C)CCn1cc(-c2ccn3c(-c4ccc(C(N)=O)c(OCc5cccc(F)c5)c4)cnc3c2)cn1
33.3
